targetOrSystem: CDK2 (Homo sapiens, UniProt P24941)
Construct: endogenous in cells; host or cells: MDA-MB-231
assayOverview: CDK protein degradation activity (Western blotting), CDK2
Assay type: cell-based
assayConditions: MDA-MB-231 cells, 0.1 μM, 16 hours, Western blot
observedProperty: Enzyme degradation CDK2 (% remaining) @ 0.1 μM (%)

* Cc1cccc(C(=O)NC2CC(n3cnc4c(NCCCN5CCN(CC6CCN(C(=O)COc7ccc([C@@H]8CCC(=O)NC8=O)cc7)CC6)CC5)ncnc43)C2)n1 (stereo partly shown) | 70
* O=C1CC[C@H](N2C(=O)c3ccc(N4CCC(C(=O)N5CCC6(CC5)CC(N5CCN(c7ccc(Nc8ncnc9c8ncn9C8CC(NC(=O)Cc9ccccc9)C8)cc7)CC5)C6)CC4)cc3C2=O)C(=O)N1 (stereo partly shown) | 70
* Cc1cccc(C(=O)NC2CC(n3cnc4c(NC5CCN(CCC6CCN(C(=O)COc7cccc8c7C(=O)N([C@H]7CCC(=O)NC7=O)C8=O)CC6)CC5)ncnc43)C2)n1 (stereo partly shown) | 60
* Cc1cccc(C(=O)N[C@H]2C[C@@H](n3cnc4c(NCc5ccc(N6CCN(CC7CCN(c8ccc9c(c8)C(=O)N([C@H]8CCC(=O)NC8=O)C9=O)CC7)CC6)cc5)ncnc43)C2)n1 | 30
* O=C1CC[C@@H](c2ccc(OCC(=O)N3CCC(CCN4CCN(c5ccc(Nc6ncnc7c6ncn7C6CC(NC(=O)Cc7ccccc7)C6)cc5)CC4)CC3)cc2)C(=O)N1 (stereo partly shown) | 80
* Cc1cccc(C(=O)N[C@H]2C[C@@H](n3cnc4c(NCc5cccc(OCC6CCN(C(=O)COc7ccc8c(c7)C(=O)N([C@H]7CCC(=O)NC7=O)C8=O)CC6)c5)ncnc43)C2)n1 | 80
* O=C1CC[C@H](N2C(=O)c3ccc(N4CC(C(=O)N5CCC6(CC5)CC(N5CCN(c7ccc(Nc8ncnc9c8ncn9[C@H]8C[C@@H](NC(=O)Cc9ccccc9)C8)cc7)CC5)C6)C4)cc3C2=O)C(=O)N1 | 90

---

targetOrSystem: CDK9 (Homo sapiens, UniProt P50750)
Construct: endogenous in cells; host or cells: MDA-MB-231
Sequence (P50750 whole entry): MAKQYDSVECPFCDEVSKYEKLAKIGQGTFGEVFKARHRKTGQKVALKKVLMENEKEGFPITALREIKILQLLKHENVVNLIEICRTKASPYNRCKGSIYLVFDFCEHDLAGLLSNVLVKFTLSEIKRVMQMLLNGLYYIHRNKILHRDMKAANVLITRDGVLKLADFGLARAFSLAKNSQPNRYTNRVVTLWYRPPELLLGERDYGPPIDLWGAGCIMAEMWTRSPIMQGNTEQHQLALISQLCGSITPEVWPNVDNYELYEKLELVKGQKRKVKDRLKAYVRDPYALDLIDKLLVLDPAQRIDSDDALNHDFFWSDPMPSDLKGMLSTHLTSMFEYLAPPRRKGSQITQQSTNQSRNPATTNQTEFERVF
assayOverview: CDK protein degradation activity (Western blotting), CDK9
Assay type: cell-based
assayConditions: MDA-MB-231 cells, 1 μM, 16 hours, Western blot
observedProperty: Enzyme degradation CDK9 (% remaining) @ 1 μM (%)

* COc1ccc(C(=O)N2CCC(CC(=O)N3CCN(c4ccc(Nc5ncnc6c5ncn6[C@H]5C[C@@H](NC(=O)Cc6ccccc6)C5)cc4)CC3)CC2)cc1N1CCC(=O)NC1=O | 50
* O=C1CCC(c2cccc(OCC(=O)N3CCC4(CC(N5CCN(c6ccc(Nc7ncnc8c7ncn8[C@H]7C[C@@H](NC(=O)Cc8ccccc8)C7)cc6)CC5)C4)C3)c2)C(=O)N1 (stereo partly shown) | 10
* O=C1CC[C@H](N2C(=O)c3ccc(N4CCC(CN5CCC(CNc6ncnc7c6ncn7[C@H]6C[C@@H](NC(=O)c7c(Cl)cccc7Cl)C6)CC5)CC4)cc3C2=O)C(=O)N1 | 20
* O=C1CC[C@H](N2C(=O)c3cc(F)c(N4CCN(CCCC5CCN(c6ccc(Nc7ncnc8c7ncn8[C@H]7C[C@@H](NC(=O)Cc8ccccc8)C7)cc6)CC5)CC4)cc3C2=O)C(=O)N1 | 20
* Cc1cccc(C(=O)N[C@H]2C[C@@H](n3cnc4c(NC5CCN(CCC6CCN(C(=O)CNc7cccc8c7C(=O)N(C7CCC(=O)NC7=O)C8=O)CC6)CC5)ncnc43)C2)n1 (stereo partly shown) | 0
* O=C1CC[C@H](N2C(=O)c3cc(F)c(N4CCC(C(=O)N5CCC(CCN6CCN(c7ccc(Nc8ncnc9c8ncn9[C@H]8C[C@@H](NC(=O)Cc9ccccc9)C8)cc7)CC6)CC5)CC4)cc3C2=O)C(=O)N1 | 0
* O=C1CC[C@@H](c2ccc(OCC(=O)N3CCC(CN4CCN(c5ccc(Nc6ncnc7c6ncn7C6CC(NC(=O)Cc7ccccc7)C6)cc5)CC4)CC3)cc2)C(=O)N1 (stereo partly shown) | 0
* Cc1cccc(C(=O)N[C@H]2C[C@@H](n3cnc4c(NCc5ccc(OCCCN6CCN(c7cccc8c7C(=O)N([C@H]7CCC(=O)NC7=O)C8=O)CC6)cc5)ncnc43)C2)n1 | 10
* O=C1CC[C@H](N2C(=O)c3ccc(N4CCC(CN5CCC(CNc6ncnc7c6ncn7C6CC(NC(=O)Cc7ccccc7)C6)CC5)CC4)cc3C2=O)C(=O)N1 (stereo partly shown) | 40

---

targetOrSystem: CDK2 (Homo sapiens, UniProt P24941)
Construct: endogenous in cells; host or cells: MDA-MB-231
assayOverview: CDK protein degradation activity (Western blotting), CDK2
Assay type: cell-based
assayConditions: MDA-MB-231 cells, 10 μM, 16 hours, Western blot
observedProperty: Enzyme degradation CDK2 (% remaining) @ 10 μM

- O=C1CC[C@H](n2nnc3ccc(N4CCC5(CC4)CC(N4CCN(c6ccc(Nc7ncnc8c7ncn8[C@H]7C[C@@H](NC(=O)Cc8ccccc8)C7)cc6)CC4)C5)cc3c2=O)C(=O)N1: 10/10/10%
- O=C1CCC(N2C(=O)c3ccc(N4CCN(CCCN5CCN(c6ccc(Nc7ncnc8c7ncn8[C@H]7C[C@@H](NC(=O)Cc8ccccc8)C7)cc6)CC5)CC4)cc3C2=O)C(=O)N1 (some centres unmarked): 20%
- Cc1cccc(C(=O)N[C@H]2C[C@@H](n3cnc4c(NCc5ccc(OCCCN6CCN(c7ccc8c(c7)C(=O)N(C7CCC(=O)NC7=O)C8=O)CC6)cc5)ncnc43)C2)n1 (some centres unmarked): 50%
- Cc1cccc(C(=O)NC2CC(n3cnc4c(NCCC5CCN(CC6CCN(c7cccc8c7C(=O)N([C@H]7CCC(=O)NC7=O)C8=O)CC6)CC5)ncnc43)C2)n1 (some centres unmarked): 100/100/100%
- O=C1CC[C@@H](c2ccc(OCC(=O)N3CCC(CN4CCN(c5ccc(Nc6ncnc7c6ncn7[C@H]6C[C@@H](NC(=O)c7c(Cl)cccc7Cl)C6)cc5)CC4)CC3)cc2)C(=O)N1: 40%

---

targetOrSystem: CDK2 (Homo sapiens)
Construct: endogenous in cells; host or cells: MDA-MB-231
assayOverview: CDK protein degradation activity (Western blotting), CDK2
Assay type: cell-based
assayConditions: MDA-MB-231 cells, 1 μM, 16 hours, Western blot
Description: In order to evaluate the CDK protein degradation activity of the compounds according to the present invention, the following experiment was conducted. MDA-MB-231 cells were seeded at 5×10^5 cells per well in a 6-well plate. The next day, the compounds were treated in each well to achieve final concentrations of 100 nM, 1 μM, and 10 μM. […] Cell lysates were quantified and separated by size using sodium dodecyl sulfate-polyacrylamide gel electrophoresis (SDS-PAGE). […]
observedProperty: Enzyme degradation CDK2 (% remaining) @ 1 μM (%)

• Cc1cccc(C(=O)N[C@H]2C[C@@H](n3cnc4c(Nc5ccc(N6CCN(CC7CCN(C(=O)COc8ccc9c(c8)C(=O)N([C@H]8CCC(=O)NC8=O)C9=O)CC7)CC6)cc5)ncnc43)C2)n1 = 20
• O=C1CC[C@H](N2C(=O)c3cc(F)c(N4CCC(C(=O)N5CCC(CN6CCN(c7ccc(Nc8ncnc9c8ncn9[C@H]8C[C@@H](NC(=O)c9cccc(C(F)(F)F)n9)C8)cc7)CC6)CC5)CC4)cc3C2=O)C(=O)N1 = 40
• Cc1cccc(C(=O)NC2CC(n3cnc4c(NC5CCN(CCOC6CCN(C(=O)CNc7cccc8c7C(=O)N([C@H]7CCC(=O)NC7=O)C8=O)CC6)CC5)ncnc43)C2)n1 (some centres unmarked) = 90
• O=C1CCC(c2ccc(OCC(=O)N3CCC(CCN4CCN(c5ccc(Nc6ncnc7c6ncn7[C@H]6C[C@@H](NC(=O)c7c(Cl)cccc7Cl)C6)cc5)CC4)CC3)cc2)C(=O)N1 (some centres unmarked) = 70

---

Listed below: Enzyme degradation CDK2 (% remaining) @ 10 μM values for each entry.
targetOrSystem: CDK2 (Homo sapiens)
Construct: endogenous in cells; host or cells: MDA-MB-231
assayOverview: CDK protein degradation activity (Western blotting), CDK2
Type: cell-based
assayConditions: MDA-MB-231 cells, 10 μM, 16 hours, Western blot
observedProperty: Enzyme degradation CDK2 (% remaining) @ 10 μM

• O=C1CC[C@H](N2C(=O)c3ccc(N4CCC(CN5CCN(c6ccc(Nc7ncnc8c7ncn8C7CC(NC(=O)c8cccc(C(F)(F)F)n8)C7)cc6)CC5)CC4)cc3C2=O)C(=O)N1 (stereo partly drawn) = 10/10/10%
• O=C1CC[C@H](N2C(=O)c3ccc(N4CCN(CC5CCN(c6ccc(Nc7ncnc8c7ncn8C7CC(NC(=O)Cc8ccccc8)C7)cc6)CC5)CC4)cc3C2=O)C(=O)N1 (stereo partly drawn) = 0%
• O=C(COc1ccc2c(c1)C(=O)N(C1CCC(=O)NC1=O)C2=O)NC[C@H]1CC[C@H](CN2CCN(c3ccc(Nc4ncnc5c4ncn5[C@H]4C[C@@H](NC(=O)Cc5ccccc5)C4)cc3)CC2)CC1 (stereo partly drawn) = 100/100/100%

These measurements were taken from patent US20260125382A1.
